assay: solvent given as SMILES; details: in CCOC(C)=O
The label Y is reserved for absorption maximum strictly under 500 nm; N covers values equal to or above it.

Record excerpt, results attached:
Consider the compound CCCCCCCCN1c2ccccc2Sc2cc(/C=C/c3ccc(N(c4ccc(/C=C/c5ccc6c(c5)Sc5ccccc5N6CCCCCCCC)cc4)c4ccc(/C=C/c5ccc(/C=C/c6ccc(N(c7ccc(/C=C/c8ccc(N(c9ccccc9)c9ccccc9)cc8)cc7)c7ccc(/C=C/c8ccc(N(c9ccccc9)c9ccccc9)cc8)cc7)cc6)c6nsnc56)cc4)cc3)ccc21 . Is its absorption maximum strictly less than 500 nm?
N

Same question, CCCCCCCCCCCCCCCCOc1cc(C#Cc2ccc3ccccc3c2-c2c(C#Cc3cc(OCCCCCCCCCCCCCCCC)c(C#Cc4ccc(C=C(C#N)C#N)cc4)cc3OCCCCCCCCCCCCCCCC)ccc3ccccc23)c(OCCCCCCCCCCCCCCCC)cc1C#Cc1ccc(C=C(C#N)C#N)cc1 this time
Y

New cases:
Hello, is absorption maximum of the following compound strictly smaller than 500 nm? O=S(=O)(c1ccc(-c2ccc(-c3nc4c5ccccc5c5ccccc5c4n3-c3ccccc3)cc2)cc1)c1ccc(-c2ccc(-c3nc4c5ccccc5c5ccccc5c4n3-c3ccccc3)cc2)cc1
Y

Also check N#CC(C#N)=C(/C=C/c1cc2c3c(c1)CCCN3CCC2)c1ccc2c3c(cccc13)CC2
N

How about Cc1cccc(Nc2ccccc2C(=O)O)c1C ?
Y

Same question for CCC1(CC)c2ccccc2-c2ccc(C#Cc3ccc4ccc5cccc6ccc3c4c56)cc21 please.
Y
